This collection of values is drawn from patent US20060115428A1.

Target: T1, recombinant fibronectin domain ED-B (His)6 (human, UniProt P02751 1266-1356)
T1 construct: domain: ED-B; Produced by standard procedures; immobilised on ELISA plates or on the BIAcore chip; also called recombinant ED-B; human ED-B
Assay: SPR (BIAcore); ratio to parent clone MOR02619
# strict inequality: x-Fold Improvement Relative to the Parent Clone, Koff < 3 fold yields Yes, everything else yields No

MOR03055 (Fab, V domains shown, Fab, L-CDR3 derivative of MOR02619) VH: QVQLQESGPGLVKPGETLSLTCTVSGGSISSYYWSWIRQAPGKGLEWIGIGHWGSTQYNPSLKGRVTISVDTSKNQFSLKLSSVTAEDTAVYYCARFFDVWGQGTLVTVSS VL: DIVLTQPPSVSGAPGQRVTISCSGSSSNIGSNTVRWYQQLPGTAPKLLIYSNNKRPSGVPDRFSGSKSGTSASLAITGLQSEDEADYYCQAWTRAHRYPVFGGGTKLTVLG	Yes
MOR03075 (Fab, V domains shown, Fab, L-CDR3 derivative of MOR02619) VH: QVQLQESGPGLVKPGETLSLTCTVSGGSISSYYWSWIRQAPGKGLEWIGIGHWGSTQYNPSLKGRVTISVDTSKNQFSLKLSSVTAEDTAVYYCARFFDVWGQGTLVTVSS VL: DIVLTQPPSVSGAPGQRVTISCSGSSSNIGSNTVRWYQQLPGTAPKLLIYSNNKRPSGVPDRFSGSKSGTSASLAITGLQSEDEADYYCQSWDPRSFTVFGGGTKLTVLG	No
MOR03071 (Fab, V domains shown, Fab, L-CDR3 derivative of MOR02619) VH: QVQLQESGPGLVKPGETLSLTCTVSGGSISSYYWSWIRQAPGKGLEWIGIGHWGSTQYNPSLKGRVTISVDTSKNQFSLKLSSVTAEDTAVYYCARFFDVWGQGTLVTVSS VL: DIVLTQPPSVSGAPGQRVTISCSGSSSNIGSNTVRWYQQLPGTAPKLLIYSNNKRPSGVPDRFSGSKSGTSASLAITGLQSEDEADYYCLAYIQSKGHVFGGGTKLTVLG	Yes
MOR03066 (Fab, V domains shown, Fab, L-CDR3 derivative of MOR02619) VH: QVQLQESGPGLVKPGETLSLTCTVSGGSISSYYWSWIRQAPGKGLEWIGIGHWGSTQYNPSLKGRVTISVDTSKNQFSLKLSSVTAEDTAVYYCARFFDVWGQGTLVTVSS VL: DIVLTQPPSVSGAPGQRVTISCSGSSSNIGSNTVRWYQQLPGTAPKLLIYSNNKRPSGVPDRFSGSKSGTSASLAITGLQSEDEADYYCSSYDTQVTRVFGGGTKLTVLG	Yes

Consider the record given below.
Ask | Check if x-Fold Improvement Relative to the Parent Clone, Koff falls below 3 fold for MOR03069 (Fab, V domains shown, Fab, L-CDR3 derivative of MOR02619) VH: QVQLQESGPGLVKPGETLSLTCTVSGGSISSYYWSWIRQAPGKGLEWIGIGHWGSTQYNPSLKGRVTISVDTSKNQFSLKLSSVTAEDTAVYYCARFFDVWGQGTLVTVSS VL: DIVLTQPPSVSGAPGQRVTISCSGSSSNIGSNTVRWYQQLPGTAPKLLIYSNNKRPSGVPDRFSGSKSGTSASLAITGLQSEDEADYYCWTGMSYHFVFGGGTKLTVLG .
Reply | No
